// values below are reported KD relative to parental chimera
# Tgt: T1, Cynomolgus Monkey VSIG4-L-His (cynomolgus monkey)
# T1 construct: ECD with His tag; also called cyVSIG4-L; cyno VSIG4-L-His
# T1 chain: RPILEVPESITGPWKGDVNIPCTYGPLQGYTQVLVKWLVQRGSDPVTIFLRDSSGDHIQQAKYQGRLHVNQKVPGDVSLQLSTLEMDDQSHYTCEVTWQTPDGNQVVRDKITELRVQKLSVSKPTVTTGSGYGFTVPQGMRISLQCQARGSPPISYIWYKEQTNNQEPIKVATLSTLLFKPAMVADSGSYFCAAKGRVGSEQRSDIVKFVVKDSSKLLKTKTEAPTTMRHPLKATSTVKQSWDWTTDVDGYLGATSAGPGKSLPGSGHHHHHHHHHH
# Procedure Summary: BLI, IgG on AHC sensor, antigen 100 nM
Give your result in fold as a bare value.

{"columns": ["Binder", "KD relative to parental chimera / fold"],
 "data": [
  ["h13H11.F humanized IgG4 (S228P) kappa (antibody, V domains shown) VH: QIQLVQSGSELKKPGASVKVSCKASGYTFENFGMNWVRQAPGQGLEWMGWINTYTGEATYADDFKGRFVFSLDTSVSTAYLQISSLKAEDTAVYYCARDGGFRHFDVWGQGTTVTVSS VL: ETQVTQSPSSLSASVGDRVTITCQTSTDIDDDMNWYQQKPGKAPKLLISEGNTLRPGVPSRFSSSGYGTDFTFTISSLQPEDIATYYCLQSDNLPLTFGGGTKLEIKR", 1.1]
]}

## Input Return reported KD relative to parental chimera; argument: h14D12.C humanized IgG4 (S228P) kappa (antibody, V domains shown) VH: QIQLVQSGAEVKKPGASVKVSCKASGYTFTNYGMNWVRQAPGQGLEWMGLINTYTGEPTYADKFQGRVTFTLDTSASTAYMELSSLRSEDTAVYFCARERIYGYLHYFDYWGQGTTVTVSS VL: DVVMTQSPDSLAVSLGERATINCKASQSVDYDGDSYMNWYQQKPGQPPKLLIYAASNRESGVPDRFSGSGSGTDFTLTISSLQAEDVAVYYCQQSNEDPRTFGGGTKLEIKR
## Output 1.5
